study_system: T1, recombinant human MASP1 active protease (amino acids 297-699, C-terminal His Tag) (human, UniProt P48740 297-699)
T1 sequence: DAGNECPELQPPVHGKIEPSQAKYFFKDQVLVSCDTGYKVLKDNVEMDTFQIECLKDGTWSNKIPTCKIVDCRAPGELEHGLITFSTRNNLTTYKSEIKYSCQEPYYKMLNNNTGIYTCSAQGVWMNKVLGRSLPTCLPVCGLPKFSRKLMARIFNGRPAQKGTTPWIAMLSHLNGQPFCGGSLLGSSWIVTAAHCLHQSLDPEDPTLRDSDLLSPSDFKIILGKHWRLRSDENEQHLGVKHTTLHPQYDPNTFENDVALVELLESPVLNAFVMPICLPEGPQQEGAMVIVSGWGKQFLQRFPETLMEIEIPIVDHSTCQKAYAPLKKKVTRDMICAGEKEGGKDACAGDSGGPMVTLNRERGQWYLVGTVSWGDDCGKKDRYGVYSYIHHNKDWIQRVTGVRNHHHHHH
assay_procedure: cell-based or functional assay
Bridge positions count the residues as written; N and C are the ends. Square brackets hold non-standard residues; d marks the D form. Ends that are not written are not given here. tBuAla = CC(C)(C)C[C@H](N)C(=O)O; PEG4 = NCCOCCOCCOCCOCCC(=O)O; Pen = CC(C)(S)[C@H](N)C(=O)O; NMeC = CN[C@@H](CS)C(=O)O; Sar = CNCC(=O)O
Please respond with reported human MASP1 IC50 for every item in the list.
Answers are plain numbers, in nM.

{"binder": "[Sar]ICSRS[tBuAla]PPI[Pen]IP[PEG4]-NH2 (disulfide 3-11; N-terminus assumed; SMILES CC[C@H](C)[C@H](NC(=O)CNC)C(=O)N[C@H]1CSSC(C)(C)[C@@H](C(=O)N[C@H](C(=O)N2CCC[C@H]2C(=O)NCCOCCOCCOCCOCCC(N)=O)[C@@H](C)CC)NC(=O)[C@H]([C@@H](C)CC)NC(=O)[C@@H]2CCCN2C(=O)[C@@H]2CCCN2C(=O)[C@H](CC(C)(C)C)NC(=O)[C@H](CO)NC(=O)[C@H](CCCNC(=N)N)NC(=O)[C@H](CO)NC1=O) [((N-Me)G)-IC+SRS-((tBu)A)-PPI-(Pen)+IP-(PEG3(16atoms))-NH2]", "unit_symbol": "nM", "human MASP1 IC50": 1.3}

Problem: Need human MASP1 IC50, item SICSRS[tBuAla]PPI[NMeC]I-NH2 (disulfide 3-11; N-terminus assumed; SMILES CC[C@H](C)[C@H](NC(=O)[C@@H]1CSSC[C@H](NC(=O)[C@@H](NC(=O)[C@@H](N)CO)[C@@H](C)CC)C(=O)N[C@@H](CO)C(=O)N[C@@H](CCCNC(=N)N)C(=O)N[C@@H](CO)C(=O)N[C@@H](CC(C)(C)C)C(=O)N2CCC[C@H]2C(=O)N2CCC[C@H]2C(=O)N[C@@H]([C@@H](C)CC)C(=O)N1C)C(N)=O) [SIC+SRS-((tBu)A)-PPI-((N-Me)C)+I-NH2]
Solution: 2.8
